Some variants, each annotated with its measured self-cleavage.
B1: Hairpin Ribozyme (parent)
chain: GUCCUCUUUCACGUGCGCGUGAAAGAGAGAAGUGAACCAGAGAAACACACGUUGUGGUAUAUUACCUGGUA

Variants of: B1
Assay: self-cleavage, relative activity (ratio to wild type); higher = more cleavage; co-transcriptional
Respond numerically, and do not add a unit to the figure.

- biopolymer sequence: "GUCCUCUUUCAGGUGCGCGUGAAAGAGAGAAGUGAACCAGAGAAACACACGUUGUGGUAUAUUACCUGGCA"
  value measured: 0.699
- biopolymer sequence: "GUCCUCUUUCACAUGCGCGUGAAAGAGAGAAGUGAACCAGAGAAACACACCUUGUGGUAUAUUACCUGGUA"
  value measured: 0.68
- biopolymer sequence: "GUCCUCUUUCACGUGCGCGUGAAAGAGAGAAGUGAACCAGUGAAACACAUGUUGUGGUAUAUUACCUGGUA"
  value measured: 0.781
- biopolymer sequence: "GUCCUCUUUCACGUGCGCGUGAAAGAGAGAAGUGAUCCAGAGAAACACAUGUUGUGGUAUAUUACCUGGUA"
  value measured: 0.125
- biopolymer sequence: "GUCCGCUUUCACGUGCGCGUGAAAGAGAGAAGUGAACCAGAGAAACACACGUUGUGGUAUAUUACUUGGUA"
  value measured: 0.223

stdin: Which self-cleavage is listed for "GUCCUCUUUCACGUGCGCGUGAAAGAGAGAAGUGAACCAGAGAAACACACGAUGUGGGAUAUUACCUGGUA" ?
stdout: 0.678

stdin: For the variant "GUCCUCUUUCACGUGCGCGUGAAAGAGAGAAGUGUACCAGUGAAACACACGUUGUGGUAUAUUACCUGGUA" , what self-cleavage is on record?
stdout: 1.41

stdin: For "GUCCUCUUUCACGUGCGCGUUAAAGAGAGAAGUGAACCAGAGAAACACACGUUGUGGUAUAUUACCUGAUA" , what is its reported self-cleavage?
stdout: 0.374

stdin: Give the measured self-cleavage of "GUCCUCCUUCACGUGCGCGUGAAAGAGAGAAGUGAACCAGAGAAACACACGUUGUCGUAUAUUACCUGGUA" .
stdout: 0.122

stdin: Reported self-cleavage, variant "GUCCUCUUUCACGGGCGCGUGAAAGAGAGAAGUGAACCAGAGAAUCACACGUUGUGGUAUAUUACCUGGUA" : ____
stdout: 0.147

stdin: Please give the measured self-cleavage for this variant: "GUCAUCUUUCCCGUGCGCGUGAAAGAGAGAAGUGAACCAGAGAAACACACGUUGUGGUAUAUUACCUGGUA"
stdout: 0.353
